Recorded IC50 values for a group of molecules are listed next.
biological target: KRAS-G12D and SOS1 (Homo sapiens, UniProt P01116, G12D); test: Inhibition of KRAS-G12D/SOS1 binding (Cisbio binding kit, 665/615 ratio), Effect Embodiment A; settings: read-out: GTP-KRAS-G12D:SOS1 IC50
Sequence (P01116 1-188 isoform P01116-2 G12D): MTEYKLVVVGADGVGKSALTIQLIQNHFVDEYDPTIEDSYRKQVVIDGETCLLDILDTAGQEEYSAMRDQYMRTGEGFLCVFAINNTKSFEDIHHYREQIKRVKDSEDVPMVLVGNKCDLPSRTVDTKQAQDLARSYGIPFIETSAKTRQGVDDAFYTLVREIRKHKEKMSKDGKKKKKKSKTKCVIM
Structures can show the parent of a compound that is named as a salt.
Report only the number, with the unit nM understood.

Example entries and their recorded answers appear below.
{"Molecule": "C[C@@H](COc1nc(N2C[C@H]3CC[C@@H](C2)N3)c2cc(Cl)c(-c3cc(O)cc4ccccc34)c(F)c2n1)CN1[C@@H]2CCC[C@H]1COC2 (single isomer, unassigned) [Compound 210, diformate]", "IC50 (nM)": 17.8}
{"Molecule": "CCc1cccc2cc(O)cc(-c3c(F)cc4c(N5CC6CCC(C5)N6)nc(OC[C@H](C)CN5C6CCC5COC6)nc4c3F)c12 (single isomer, unassigned) [Compound 284b, dihydrochloride]", "IC50 (nM)": 2010}

Oc1cc(-c2c(Cl)cc3c(N4CC5CCC(C4)N5)nc(OCC4CCC5COCCN5C4)nc3c2F)c2ccccc2c1 (single isomer, unassigned) [Compound 264b] yielded IC50 of 19.3

---

Recorded pIC50 values for a group of compounds are listed next.
biological target: KRAS-G12D and SOS1 (Homo sapiens, UniProt P01116, G12D); assay: Inhibition of KRAS-G12D/SOS1 binding (Cisbio binding kit, 665/615 ratio), Effect Embodiment A; details: read-out: GTP-KRAS-G12D:SOS1 IC50
Structures can show the parent of a compound that is named as a salt.
Lab note — pIC50 values are minus log10 of concentrations in M.

{"Compound": "Oc1cc(-c2c(Cl)cc3c(N4CC5CCC(C4)N5)nc(OCC(CN4C5CCC4COC5)C(F)(F)F)nc3c2F)c2ccccc2c1 (single isomer, unassigned) [Compound 218b]", "pIC50": 6.60}

Given the compound Oc1cc(-c2c(Cl)cc3c(N4CC5CCC(C4)N5)nc(OCCN4CCCC(F)C4)nc3c2F)c2ccccc2c1 (single isomer, unassigned) [Compound 267a] and test system KRAS-G12D and SOS1 (Homo sapiens, UniProt P01116, G12D), the measured pIC50 is 7.12

Given the compound C[C@@H](COc1nc(N2CC3CCC(C2)N3)c2cc(Cl)c(-c3cc(O)cc4ccccc34)c(F)c2n1)CN1C[C@H](C)O[C@@H](C)C1 (single isomer, unassigned) and test system KRAS-G12D and SOS1 (Homo sapiens, UniProt P01116, G12D), the measured pIC50 is 7.71

Given the compound CN1CCC[C@H]1COc1nc(N2CC3CCC(C2)N3)c2cc(Cl)c(-c3cc(O)cc4ccccc34)c(F)c2n1 (single isomer, unassigned) [Compound 170, dihydrochloride] and test system KRAS-G12D and SOS1 (Homo sapiens, UniProt P01116, G12D), the measured pIC50 is 7.89

---

molecular target: KRAS_WT and SOS1 (Homo sapiens)
Counter-ions that a name gives are not always drawn.
Recorded log10 IC50 values for a group of molecules are listed next.
// do not treat as linear: log10 of IC50, unit µM

Example entries and their recorded answers appear below.
{"Molecule": "CN1CCN(CCCOc2nc(N3CC4CCC(C3)N4)c3cc(Cl)c(-c4cc(O)cc5ccccc45)c(F)c3n2)CC1 (single isomer, unassigned) [Compound 99, dihydrochloride]", "log10 IC50": 0.41}
{"Molecule": "Oc1cc(-c2c(Cl)cc3c(N4CC5CCC(C4)N5)nc(OCC(F)CN4CCCC4)nc3c2F)c2ccccc2c1 (single isomer, unassigned) [Compound 109b, hydrochloride]", "log10 IC50": 0.73}
{"Molecule": "Oc1cc(-c2c(Cl)cc3c(N4CC5CCC(C4)N5)nc(OCC4(CN5C6CCC5COC6)CCC4)nc3c2F)c2ccccc2c1 (single isomer, unassigned) [Compound 173, dihydrochloride]", "log10 IC50": -0.60}
{"Molecule": "Oc1cc(Cl)c(C2CC2)c(-c2c(Cl)cc3c(N4C[C@H]5CC[C@@H](C4)N5)nc(OCCCN4C5CCC4COC5)nc3c2F)c1 (single isomer, unassigned) [Compound 197a]", "log10 IC50": -0.08}
{"Molecule": "Cn1cnc(Cn2ccc3ccc(CNCc4[nH]c5ccccc5c4[C@H]4NC(=O)c5ccc(O)cc54)cc32)c1 [BI-2852, reference compound]", "log10 IC50": -0.87}
{"Molecule": "CN1CCC[C@H]1COc1nc(N2CC3CCC(C2)N3)c2cc(F)c(-c3cc(O)cc4ccccc34)c(F)c2n1 (single isomer, unassigned) [Compound 160a, dihydrochloride]", "log10 IC50": -0.82}
{"Molecule": "CC1OCCN(CCCOc2nc(N3CC4CCC(C3)N4)c3cc(Cl)c(-c4cc(O)cc5ccccc45)c(F)c3n2)C1C (single isomer, unassigned) [Compound 265a]", "log10 IC50": 0.77}
{"Molecule": "C[C@@H](COc1nc(N2C[C@H]3CC[C@@H](C2)N3)c2cc(Cl)c(-c3cc(O)cc4ccccc34)c(F)c2n1)CN1[C@@H]2CCC[C@H]1COC2 (single isomer, unassigned) [Compound 210, diformate]", "log10 IC50": 0.32}

Consider now this further molecule.
Given the molecule C[C@H](COc1nc(N2CC3CCC(C2)N3)c2cc(Cl)c(-c3cc(O)cc4ccccc34)c(F)c2n1)CN(C)C (single isomer, unassigned) and test system KRAS_WT and SOS1 (Homo sapiens), the measured log10 IC50 is 0.33

---

Biological target: KRAS-G12D and SOS1 (Homo sapiens, UniProt P01116, G12D)
Assay: Inhibition of KRAS-G12D/SOS1 binding (Cisbio binding kit, 665/615 ratio), Effect Embodiment A
Conditions: read-out: GTP-KRAS-G12D:SOS1 IC50
Protocol: Similarly, the first dilution point of the compound to be tested was its storage solution, and the solution was 3-fold diluted, with 11+0 points of dilution. Echo was used to transfer 0.2 μL gradient diluted solution of the compounds into a 384-well plate, with 2 duplicated wells for each compound, and the final concentration of DMSO was 1%. The solution was centrifuged for 1 min at 1000 rpm/min. IC50 of the compounds was fitted by Graphpad Prism 8 nonlinear regression equation: […]
Counter-ions that a name gives are not always drawn.
Property: IC50 (nM)
Report only the number, with the unit nM understood.

Example entries and their recorded answers appear below.
{"Compound": "CN1CCC[C@H]1COc1nc(N2CCN(C(=O)CCN)[C@@H](CC#N)C2)c2cc(Cl)c(-c3cc(O)cc4ccccc34)c(F)c2n1 (single isomer, unassigned) [Compound 157]", "Property": "IC50", "Result value": 316}
{"Compound": "C[C@@H](COc1nc(N2CC3CCC(C2)N3)c2cc(Cl)c(-c3cc(O)cc4ccccc34)c(F)c2n1)CN1C[C@@H](C)OC[C@@H]1C (single isomer, unassigned) [Compound 226]", "Property": "IC50", "Result value": 67.9}

Given the compound CN1CCCC[C@H]1COc1nc(N2CC3CCC(C2)N3)c2cc(Cl)c(-c3cc(O)cc4ccccc34)c(F)c2n1 (single isomer, unassigned) [Compound 56b, dihydrochloride] and test system KRAS-G12D and SOS1 (Homo sapiens, UniProt P01116, G12D), the measured IC50 is 15700

---

Structures can show the parent of a compound that is named as a salt.
Assay read-out pIC50; system under study: KRAS_WT and SOS1 (Homo sapiens, UniProt P01116).
Sequence (P01116 1-188 isoform P01116-2): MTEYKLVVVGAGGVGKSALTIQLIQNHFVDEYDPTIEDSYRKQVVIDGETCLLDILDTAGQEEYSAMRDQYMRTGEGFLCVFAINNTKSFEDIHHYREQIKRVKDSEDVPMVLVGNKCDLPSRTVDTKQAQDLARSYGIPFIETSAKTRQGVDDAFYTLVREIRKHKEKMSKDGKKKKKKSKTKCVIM
Lab note — pIC50 values are minus log10 of concentrations in M.

Example entries and their recorded answers appear below.
{"Molecule": "CN1CCC[C@H]1COc1nc(N2CC3(C)CCC(C)(C2)N3)c2cc(Cl)c(-c3cc(O)cc4ccccc34)c(F)c2n1 (single isomer, unassigned) [Compound 194a]", "pIC50": 6.69}
{"Molecule": "CCc1cccc2cc(O)cc(-c3c(F)cc4c(N5CC6CCC(C5)N6)nc(OC[C@H](C)CN5C6CCC5COC6)nc4c3F)c12 (single isomer, unassigned) [Compound 284a, dihydrochloride]", "pIC50": 6.60}
{"Molecule": "CN(C)CCCCOc1nc(N2CC3CCC(C2)N3)c2cc(Cl)c(-c3cc(O)cc4ccccc34)c(F)c2n1 (single isomer, unassigned) [Compound 60a]", "pIC50": 5.23}
{"Molecule": "CN(C)CC(C)(C)COc1nc(N2CC3CCC(C2)N3)c2cc(Cl)c(-c3cc(O)cc4ccccc34)c(F)c2n1 (single isomer, unassigned) [Compound 118, dihydrochloride]", "pIC50": 5.62}
{"Molecule": "CN1C[C@H](F)C[C@H]1COc1nc(N2CC3CCC(C2)N3)c2cc(Cl)c(-c3cc(O)cc4ccccc34)c(F)c2n1 (single isomer, unassigned) [Compound 168, dihydrochloride]", "pIC50": 6.34}

Given the molecule Cc1cccc2cc(O)cc(-c3c(Cl)cc4c(N5CC6CCC(C5)N6)nc(N5CC(N(C)C)C5)nc4c3F)c12 (single isomer, unassigned) [Compound 47a] and test system KRAS_WT and SOS1 (Homo sapiens, UniProt P01116), the measured pIC50 is 5.24

Given the molecule Oc1cc(-c2c(Cl)cc3c(N4CC5CCC(C4)N5)nc(OCC45CCCN4CCC5)nc3c2F)c2ccccc2c1 (single isomer, unassigned) [Compound 58a] and test system KRAS_WT and SOS1 (Homo sapiens, UniProt P01116), the measured pIC50 is 7.33

Given the molecule CN(C)C1CN(c2nc(N3C[C@@H]4CC[C@H]3CN4)c3cc(Cl)c(-c4cc(O)cc5ccccc45)c(F)c3n2)C1 (single isomer, unassigned) [Compound 4a] and test system KRAS_WT and SOS1 (Homo sapiens, UniProt P01116), the measured pIC50 is 6.40

Given the molecule CN1CCC[C@H]1COc1nc(N2CC3CCC(C2)N3)c2cc(Cl)c(-c3cc(O)cc4ccccc34)c(F)c2n1 (single isomer, unassigned) [Compound 39a] and test system KRAS_WT and SOS1 (Homo sapiens, UniProt P01116), the measured pIC50 is 6.47

Given the molecule CCN(C)CCCOc1nc(N2CC3CCC(C2)N3)c2cc(Cl)c(-c3cc(O)cc4ccccc34)c(F)c2n1 (single isomer, unassigned) [Compound 49a] and test system KRAS_WT and SOS1 (Homo sapiens, UniProt P01116), the measured pIC50 is 5.77

Given the molecule Oc1cc(-c2c(Cl)cc3c(N4CC5CCC(C4)N5)nc(OCCCN4C5CCC4COC5)nc3c2F)c2ccccc2c1 (single isomer, unassigned) [Compound 106, dihydrochloride] and test system KRAS_WT and SOS1 (Homo sapiens, UniProt P01116), the measured pIC50 is 5.75
